- Test system: P93_24
- MEASUREMENT DESCRIPTION: qHTS profiling for inhibitors of Plasmodium falciparum proliferation (AID 504749); further: nearly all actives have a fitted effect of over 60% in size
- TEST CONTEXT: P. falciparum in erythrocytes, SYBR Green DNA, 72 h; series mostly up to 28.7 µM
Records with an inconclusive call do not appear. The source made the active and inactive calls. The call rests on the fitted dose curve; in most records, active means well fitted inhibition curve with a large enough effect; inconclusive means small, poorly fitted or top-dose-only effect; inactive means flat fitted curve, though single readings scatter.
Select the matching outcome among Y for active, N for inactive

INSERT INTO assay_data (compound, target_or_system, class) VALUES
  ('O=C(NC(Cc1cc(=O)[nH]c2ccccc12)C(=O)O)c1ccc(Cl)cc1 (stereo not given)', 'P93_24', 'N'),
  ('C=C(c1ccc(C(=O)O)cc1)c1cc2c(cc1C)C(C)(C)CCC2(C)C', 'P93_24', 'N'),
  ('C[C@]12CCC(=O)C=C1CC[C@@H]1[C@H]2[C@@H](O)C[C@@]2(C)[C@H]1CC[C@]2(O)C(=O)CO', 'P93_24', 'N');

**Q:** Dear all, I need the recorded test outcome for COc1ccc(C2(C#N)CCC(C(=O)O)CC2)cc1OC1CCCC1 (stereo not given) , thank you.
**A:** N

**Q:** Hello, I am checking results. What call was entered for CCCCN(CCCC)CCC(O)c1cc2c(Cl)cc(Cl)cc2c2cc(C(F)(F)F)ccc12 (stereo not given) ?
**A:** Y
